We begin with a simple list: items and their reported % Block at 0.064 nM.
- target-entity: T1, CTLA-4-hFc (immunogen A; hFc-labeled CTLA-4 extracellular domain protein) (human, UniProt P16410 36-161)
- T1 construct: range 36-161; Made in HEK293 cells, purified on protein A; also called CLTA-4-hFc; CTLA-4 protein; not shown: human IgG Fc fragment (hFc) of the pCpC vector
- T1 sequence (looked up): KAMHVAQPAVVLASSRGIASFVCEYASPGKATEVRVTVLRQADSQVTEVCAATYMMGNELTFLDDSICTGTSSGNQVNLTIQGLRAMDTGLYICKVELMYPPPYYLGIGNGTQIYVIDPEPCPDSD
- procedure-summary: blocking assay, CTLA-4 protein, competitor B7.1
endpoint-name: % Block at 0.064 nM

binder="97A8D1 fully human CTLA-4 antibody (human IgG1, kappa) (antibody, V domains shown, also called mAb49; mAb049) VH: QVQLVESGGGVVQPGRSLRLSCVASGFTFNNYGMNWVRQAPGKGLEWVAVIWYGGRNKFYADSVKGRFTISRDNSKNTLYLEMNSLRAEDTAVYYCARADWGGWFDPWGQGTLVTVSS VL: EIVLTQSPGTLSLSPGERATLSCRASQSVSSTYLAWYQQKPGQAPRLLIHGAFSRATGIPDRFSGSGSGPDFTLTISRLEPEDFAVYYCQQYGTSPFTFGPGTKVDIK" observed_result=28.7%
binder="31C12F3 fully human CTLA-4 antibody (human IgG1, kappa) (antibody, V domains shown, also called mAb010) VH: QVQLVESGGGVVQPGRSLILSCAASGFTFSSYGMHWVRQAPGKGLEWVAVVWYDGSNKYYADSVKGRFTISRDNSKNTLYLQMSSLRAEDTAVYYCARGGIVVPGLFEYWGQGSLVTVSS VL: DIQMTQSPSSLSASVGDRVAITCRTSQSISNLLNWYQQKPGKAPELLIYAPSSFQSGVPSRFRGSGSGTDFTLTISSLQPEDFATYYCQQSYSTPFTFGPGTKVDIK" observed_result=30.4%
binder="92C8B6 fully human CTLA-4 antibody (human IgG1, kappa) (antibody, V domains shown, also called mAb42; mAb042) VH: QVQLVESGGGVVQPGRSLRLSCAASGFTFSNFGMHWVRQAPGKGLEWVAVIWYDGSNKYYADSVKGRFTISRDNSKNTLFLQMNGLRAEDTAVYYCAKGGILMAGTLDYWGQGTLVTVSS VL: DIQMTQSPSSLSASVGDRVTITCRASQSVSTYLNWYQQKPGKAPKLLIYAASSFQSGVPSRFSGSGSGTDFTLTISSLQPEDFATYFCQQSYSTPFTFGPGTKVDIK" observed_result=21.4%

These entries and their values trace back to patent US20210324080A1.
